# System: MDA-MB-231
# Assay explanation: drug sensitivity score (DSS), CellTox Green (DSS (AUC-based score)); higher = stronger drug effect (viability inhibition or cytotoxicity); extreme values may be limits of the assay
# Setup conditions: incubation time: 72 h
Listed compounds paired with reported drug sensitivity score

- COc1ccc(C2=N[C@@H](c3ccc(Cl)cc3)[C@@H](c3ccc(Cl)cc3)N2C(=O)N2CCNC(=O)C2)c(OC(C)C)c1: 0
- Cn1c(=O)c(F)c(Nc2ccc(I)cc2F)c2c(=O)n(C[C@@H](O)CO)cnc21: 5.12

Moving on to another compound below.
Quick one: drug sensitivity score for CN1CCN(c2ccc3nc(-c4c(N)c5c(F)cccc5[nH]c4=O)[nH]c3c2)CC1 ?
0.731
